Values compiled from patent US20150098989A1.

- STUDY_SYSTEM: SNARE complex (VAMP, syntaxin, SNAP-25) (UniProt P60880)
- Sequence (P60880 whole entry, one chain of several): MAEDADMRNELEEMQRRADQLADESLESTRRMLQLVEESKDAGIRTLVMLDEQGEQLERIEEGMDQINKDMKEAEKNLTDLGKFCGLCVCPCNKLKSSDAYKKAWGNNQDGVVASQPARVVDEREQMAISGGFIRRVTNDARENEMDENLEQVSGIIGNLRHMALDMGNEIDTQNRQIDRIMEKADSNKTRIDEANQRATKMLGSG
- PROTOCOL: SDS-PAGE of SNARE complex (VAMP, syntaxin, SNAP-25), image analysis; compound at 1 mM
READOUT_NAME: % inhibition formation SNARE complex (%)

>>> reported_value("Ac-NHFLNWM-NH2 [Ac-SEQ ID NO: 15-NH2]")
50
>>> reported_value("Ac-DHFLNWM-NH2 [Ac-SEQ ID NO: 34-NH2]")
14
>>> reported_value("Ac-DHFQQRM-NH2 [Ac-SEQ ID NO: 24-NH2]")
48
